Test system: HEK-MOCK cells
Experiment: Concentration-dependent cellular uptake into HEK-MOCK cells
Assay type: cell-based, human
Settings: compounds 1-12, 2-400 μM, 10 min
recordedEndpoint: Vmax

Field: example entries. Status: answers known.
molecule | recordedEndpoint | result
CNC(=O)COc1ccc(-c2c(C#N)c(NC(=O)c3cccc(C[C@H](N)C(=O)O)c3)n3c(nc4ccccc43)c2C#N)cc1 | Vmax | 74±92 pmol/min/mg of protein
CC(C(=O)Nc1cccc(C[C@H](N)C(=O)O)c1)c1cccc(C(=O)c2ccccc2)c1 (some centres unmarked) | Vmax | 63±24 pmol/min/mg of protein
CCCN(CCC)S(=O)(=O)c1ccc(C(=O)Nc2cccc(C[C@H](N)C(=O)O)c2)cc1 | Vmax | 248±616 pmol/min/mg of protein
COc1cc(/C=C/C(=O)Nc2cccc(C[C@H](N)C(=O)O)c2)ccc1O | Vmax | 149±41 pmol/min/mg of protein

Turning now to a further record.
Which value of Vmax has been reported for N[C@@H](Cc1cccc(NC(=O)c2ccccc2O)c1)C(=O)O in the records? 94±5.4 pmol/min/mg of protein

The values you see were collected from paper PMC9811466.
